// data source = ChEMBL document CHEMBL2412964

Quick list: IC50 per entry.
experimental.target: Cannabinoid receptor 2 (Rattus norvegicus)
Sequence (Q9QZN9 whole entry): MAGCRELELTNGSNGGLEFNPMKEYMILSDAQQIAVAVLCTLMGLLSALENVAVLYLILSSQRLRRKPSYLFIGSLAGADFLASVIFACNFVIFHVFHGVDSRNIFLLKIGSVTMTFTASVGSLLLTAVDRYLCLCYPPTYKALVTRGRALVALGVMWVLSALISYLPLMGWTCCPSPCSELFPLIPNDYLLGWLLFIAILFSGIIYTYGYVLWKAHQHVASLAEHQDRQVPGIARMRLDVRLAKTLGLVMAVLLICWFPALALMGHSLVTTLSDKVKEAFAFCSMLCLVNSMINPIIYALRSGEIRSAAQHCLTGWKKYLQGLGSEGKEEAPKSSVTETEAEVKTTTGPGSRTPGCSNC

Known results for molecules:
>>> print(df.to_string())
                                   compound     result
0  CCN1CCc2c(c(C(C)(C)C)nn2C(=O)Nc2c(C)cccc2C)C1  > 1000 nM
1  CCN1CCc2c(c(C(C)(C)C)nn2C(=O)Nc2ccc(Br)cc2)C1  > 1000 nM

Next up:
Exam item: Reported IC50 for Cannabinoid receptor 2 (Rattus norvegicus), given CCN1CCc2c(c(C(C)(C)C)nn2C(=O)Nc2ccc(C)cc2C)C1 ?
Marked response: > 1000 nM

---

Test system: Rattus norvegicus
test: Antinociceptive activity in Wistar rat partial sciatic nerve ligation model assessed as reversal of spontaneous pain response at 100 mg/kg, ip after 120 mins (reference value: 1.2 +/- 0.1%)
Format: functional
run.conditions: route intraperitoneal
Activity: recorded values
Express your answer in %, writing the number without its unit.

Sample records with Activity:
>>> print(df.to_string())
                                   compound  reported_endpoint  result
0    CCN1CCc2c(c(C)nn2C(=O)Nc2cc(C)ccc2F)C1           Activity    17.3
1    CCN1CCc2c(c(C)nn2C(=O)Nc2ccc(C)cc2C)C1           Activity     5.9
2  CCN1CCc2c(c(C(C)(C)C)nn2C(=O)Nc2ccc(Cl)cc2)C1           Activity     6.3
3    CCN1CCc2c(c(C)nn2C(=O)Nc2ccc(Br)cc2)C1           Activity    41.3

Exam item: Param item = CCN1CCc2c(c(C(C)(C)C)nn2C(=O)Nc2cc(C)ccc2F)C1 ; retrieve measured Activity.
Marked response: 7.5

Exam item: What value of measured Activity is listed for CCN1CCc2c(c(C(C)(C)C)nn2C(=O)Nc2ccc(Br)cc2)C1 ?
Marked response: 43.1

---

Tested on: Rattus norvegicus
test: Antinociceptive activity in Wistar rat chronic constriction injury model assessed as reversal of tactile allodynia at 100 mg/kg, ip after 120 mins (reference value: 4.1 +/- 2.1%)
Format: functional
run.conditions: route intraperitoneal
reported.endpoint: Activity
Show the value, then the unit it is measured in.

The following compounds have reported results that may help.
>>> print(df.to_string())
                                   compound  reported_endpoint  result
0  CCN1CCc2c(c(C(C)(C)C)nn2C(=O)Nc2cccc(C(F)(F)F)c2)C1           Activity    9.9%
1  CCN1CCc2c(c(C(C)(C)C)nn2C(=O)Nc2c(C)cccc2C)C1           Activity   69.7%
2    CCN1CCc2c(c(C)nn2C(=O)Nc2ccc(Br)cc2)C1           Activity   57.7%
3    CCN1CCc2c(c(C)nn2C(=O)Nc2cc(C)ccc2C)C1           Activity    2.2%
4  CCN1CCc2c(c(C(C)(C)C)nn2C(=O)Nc2cc(C)ccc2F)C1           Activity    4.5%
5  CCN1CCc2c(c(C)nn2C(=O)Nc2cccc(C(F)(F)F)c2)C1           Activity   11.8%
6    CCN1CCc2c(c(C)nn2C(=O)Nc2c(C)cccc2C)C1           Activity   65.1%
7  CCN1CCc2c(c(C(C)(C)C)nn2C(=O)Nc2cc(C)ccc2C)C1           Activity   44.7%
8    CCN1CCc2c(c(C)nn2C(=O)Nc2ccc(C)cc2C)C1           Activity   66.1%
9  CCN1CCc2c(c(C(C)(C)C)nn2C(=O)Nc2ccc(C)cc2C)C1           Activity     58%

Kindly consider the entry below.
Exam item: Please look up its Activity: CCN1CCc2c(c(C(C)(C)C)nn2C(=O)Nc2ccc(Br)cc2)C1
Marked response: 50.5%

---

System: Rattus norvegicus
test: Antinociceptive activity in Wistar rat partial sciatic nerve ligation model assessed as reversal of tactile allodynia at 100 mg/kg, ip after 60 mins (reference value: 12.5 +/- 1.2%)
Assay type: functional
run.conditions: route intraperitoneal
Binning of Activity into classes: low = under 20%, middle = from 20% up to 50%, high = 50% and over

Exam item: Which class holds CCN1CCc2c(c(C)nn2C(=O)Nc2ccc(F)cc2F)C1 ?
Marked response: middle

Exam item: Using the reported Activity, which band applies to NCC1(CC(=O)O)CCCCC1 [GABAPENTIN] ?
Marked response: high

Exam item: // bin(item) where item = CCN1CCc2c(c(C)nn2C(=O)Nc2ccc(Br)cc2)C1
Marked response: high

Exam item: Entry CCN1CCc2c(c(C)nn2C(=O)Nc2ccc(C)cc2C)C1 belongs to which category?
Marked response: middle

Exam item: Which band does CCN1CCc2c(c(C(C)(C)C)nn2C(=O)Nc2cc(C)ccc2C)C1 fall in?
Marked response: low

Exam item: Any idea which band CCN1CCc2c(c(C(C)(C)C)nn2C(=O)Nc2cc(C)ccc2F)C1 is in?
Marked response: low

---

# Lookup of reported Activity keyed by entry
Tested on: Rattus norvegicus
test: Antinociceptive activity in Wistar rat chronic constriction injury model assessed as reversal of spontaneous pain response at 100 mg/kg, ip after 120 mins (reference value: 4.5 +/- 0.2%)
Type: functional
run.conditions: route intraperitoneal

Worked examples follow.
>>> df
                                   compound  result
0    CCN1CCc2c(c(C)nn2C(=O)Nc2cc(C)ccc2F)C1   51.8%
1    CCN1CCc2c(c(C)nn2C(=O)Nc2c(C)cccc2C)C1   53.7%
2  CCN1CCc2c(c(C(C)(C)C)nn2C(=O)Nc2ccc(F)cc2F)C1   91.6%

Exam item: I am curious: what Activity value has been reported for CCN1CCc2c(c(C(C)(C)C)nn2C(=O)Nc2ccc(C)cc2C)C1 ?
Marked response: 89.5%

Exam item: Using the record for CCN1CCc2c(c(C)nn2C(=O)Nc2cccc(C(F)(F)F)c2)C1 , report its Activity.
Marked response: 12.5%

Exam item: For the compound NCC1(CC(=O)O)CCCCC1 , what Activity is on record?
Marked response: 88.8%

---

// reported Activity for each item listed
Test system: Rattus norvegicus
test: Antinociceptive activity in Wistar rat partial sciatic nerve ligation model assessed as reversal of spontaneous pain response at 100 mg/kg, ip after 120 mins (reference value: 1.2 +/- 0.1%)
Type: functional
run.conditions: route intraperitoneal
Express your answer in %, writing the number without its unit.

Example entries and their recorded answers appear below.
>>> print(df.to_string())
                                   compound  result
0    CCN1CCc2c(c(C)nn2C(=O)Nc2cc(C)ccc2C)C1     4.8
1    CCN1CCc2c(c(C)nn2C(=O)Nc2c(C)cccc2C)C1    58.4
2  CCN1CCc2c(c(C(C)(C)C)nn2C(=O)Nc2cccc(C(F)(F)F)c2)C1    19.8
3  CCN1CCc2c(c(C(C)(C)C)nn2C(=O)Nc2ccc(C)cc2C)C1    64.2
4  CCN1CCc2c(c(C(C)(C)C)nn2C(=O)Nc2cc(C)ccc2C)C1    13.6

Exam item: What does the record list as Activity for CCN1CCc2c(c(C(C)(C)C)nn2C(=O)Nc2ccc(F)cc2F)C1 ?
Marked response: 56.9

Exam item: Quick check: Activity of CCN1CCc2c(c(C)nn2C(=O)Nc2ccc(Cl)cc2)C1 ?
Marked response: 11

Exam item: Given the compound NCC1(CC(=O)O)CCCCC1 , what is its reported Activity?
Marked response: 82.4

Exam item: I have this compound here, CCN1CCc2c(c(C)nn2C(=O)Nc2ccc(F)cc2F)C1 , and I need its recorded Activity.
Marked response: 14.7

Exam item: Can you look up the measured Activity of CCN1CCc2c(c(C(C)(C)C)nn2C(=O)Nc2c(C)cccc2C)C1 for me?
Marked response: 57.8

Exam item: Fill in: Activity of CCN1CCc2c(c(C)nn2C(=O)Nc2cccc(C(F)(F)F)c2)C1 is ___
Marked response: 13.8

---

Tested on: Rattus norvegicus
test: Antinociceptive activity in Wistar rat partial sciatic nerve ligation model assessed as reversal of tactile allodynia at 100 mg/kg, ip after 60 mins (reference value: 12.5 +/- 1.2%)
Format: functional
run.conditions: route intraperitoneal
reported.endpoint: Activity (%)
Output spec: scalar in %, unitless text.

Answered examples (5):
>>> print(df.to_string())
                                   compound  result
0    CCN1CCc2c(c(C)nn2C(=O)Nc2ccc(Cl)cc2)C1     8.2
1  CCN1CCc2c(c(C(C)(C)C)nn2C(=O)Nc2cccc(C(F)(F)F)c2)C1      13
2  CCN1CCc2c(c(C(C)(C)C)nn2C(=O)Nc2ccc(Cl)cc2)C1     3.5
3  CCN1CCc2c(c(C(C)(C)C)nn2C(=O)Nc2c(C)cccc2C)C1    61.6
4  CCN1CCc2c(c(C(C)(C)C)nn2C(=O)Nc2ccc(C)cc2C)C1    50.4

Exam item: # Activity lookup, item CCN1CCc2c(c(C)nn2C(=O)Nc2cccc(C(F)(F)F)c2)C1
Marked response: 11.1

Exam item: What does the record list as Activity for CCN1CCc2c(c(C(C)(C)C)nn2C(=O)Nc2ccc(Br)cc2)C1 ?
Marked response: 44.9

Exam item: Look up Activity for this compound: CCN1CCc2c(c(C)nn2C(=O)Nc2cc(C)ccc2C)C1
Marked response: 16

Exam item: Name the reported Activity value associated with the compound CCN1CCc2c(c(C)nn2C(=O)Nc2cc(C)ccc2F)C1
Marked response: 15.1

Exam item: Which measured Activity value corresponds to CCN1CCc2c(c(C(C)(C)C)nn2C(=O)Nc2ccc(F)cc2F)C1 ?
Marked response: 51.7

Exam item: So what's the measured Activity for this one? CCN1CCc2c(c(C)nn2C(=O)Nc2c(C)cccc2C)C1
Marked response: 46.4
